Molecular target: Torsin-1A-interacting protein 2 (Homo sapiens)
Assay: LULL1 binders on small-molecule microarray, primary screen, cell lysate, human LULL1 lysate, 635/667 nm fluorescence (AID 1092);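 further: probe is lysate of COS7 cells overexpressing human LULL1; score merges per-feature 667 nm fluorescence with signal-to-noise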
Conditions: hLULL1 lysate binding, 635 nm fluorescence, higher = more signal
Please assign a class to every record based on measured composite z-score, with ranges range 1 (below 2), range 2 (2 to below 3), range 3 (3 or more)

>  <compound>
[N-]=[N+]=Nc1ccccc1C[C@]1(C(=O)N2CCCCC2)N=C(c2ccc(OCCCO)cc2)O[C@H]1c1ccccc1

>  <target entity>
Torsin-1A-interacting protein 2 (Homo sapiens)

>  <cat>
range 2

$$$$
>  <compound>
COC(=O)C1(CC(C)C)C=C2C(=C(C)C(=O)C2C)CN1 (stereo not given)

>  <target entity>
Torsin-1A-interacting protein 2 (Homo sapiens)

>  <cat>
range 2

$$$$
>  <compound>
COc1c(C)cc(-c2cc3c(c(CCc4ccccc4)n2)[Si](C(C)C)(C(C)C)O[C@H]3c2ccccc2)cc1C

>  <target entity>
Torsin-1A-interacting protein 2 (Homo sapiens)

>  <cat>
range 1

$$$$
>  <compound>
CCOC(=O)C1=CCC(c2ccncc2)N(S(=O)(=O)c2ccc(C)cc2)C1 (stereo not given)

>  <target entity>
Torsin-1A-interacting protein 2 (Homo sapiens)

>  <cat>
range 3

$$$$
>  <compound>
C=C(CC1([C@@H](NP(=O)(c2ccccc2)c2ccccc2)[C@H]2C[C@@H]2CCCC)CC1)c1cccc(OC)c1

>  <target entity>
Torsin-1A-interacting protein 2 (Homo sapiens)

>  <cat>
range 1

$$$$

[Q] Category of O=C(CS)NCCCCCCNC(=O)[C@H]1C[C@H]2C(=O)NCC(=O)N2[C@H]1c1cccc(OCCO)c1 , please.
[A] range 2

[Q] Category of COCCCNC(=O)[C@@]1(Cc2ccccc2I)c2ccccc2C(=O)N(Cc2ccccc2C(F)(F)F)[C@H]1c1ccc(CO)cc1 , please.
[A] range 2

[Q] Category of COCCOC(=O)N1C(=O)[C@@]2(c3cc(C#CCC(C(=O)OC)C(=O)OC)ccc31)[C@H](c1ccc(O)cc1)N1[C@H](c3ccccc3)[C@H](c3ccccc3)OC(=O)[C@H]1[C@@H]2C(=O)N1CCc2cc(OC)c(OC)cc2C1 , please.
[A] range 2

[Q] Category of Cc1ccc(S[C@]2(C(=O)NC3CC3)CC(=O)N(C3Cc4ccccc4C3)[C@@H]2c2ccc(CO)cc2I)cc1 , please.
[A] range 1

[Q] Category of CN1C(=O)C2C=CC(C(O)c3ccc(I)cc3)N(N(c3ccccc3)c3ccccc3)C2C1=O (stereo not given) , please.
[A] range 1

[Q] Category of CC(CO)N1C(=O)[C@@H]2[C@H]3C(=O)OCC=C[C@H]3OC23C=CCN(c2ccc4ccccc4c2)C(=O)[C@@H]13 (stereo not given in full) , please.
[A] range 1

[Q] Category of C=C1C(=O)C=C2CN(C(=O)c3ccccc3)[C@@](Cc3ccc(F)cc3)(C(=O)OC)[C@@H]12 , please.
[A] range 3
